Tested on: HeLa
METHOD: cell viability (CellTiter-Glo) relative to median of lowest-dilution wells of all drugs (fraction); higher = more viable cells
TEST_CONTEXT: drug concentration (unit not stated): 10; genotype: control (DDX11 wild type)
Where a name gives a salt, the structure may show the parent alone.
Listing: cell viability of selected compounds
OBSERVED_PROPERTY: cell viability

compound=C=CCn1c(=O)c2cnc(Nc3ccc(N4CCN(C)CC4)cc3)nc2n1-c1cccc(C(C)(C)O)n1 observed_property="cell viability" test_result=0.092
compound=NC(=O)c1ccc(I)c([N+](=O)[O-])c1 observed_property="cell viability" test_result=0.93
compound="COC1=CC(c2cc3ccccc3[nH]2)=N/C1=C\\c1[nH]c(C)cc1C [Obatoclax mesylate]" observed_property="cell viability" test_result=0.0791
compound=CC1(C)CCC(c2ccc(Cl)cc2)=C(CN2CCN(c3ccc(C(=O)NS(=O)(=O)c4ccc(N[C@H](CCN5CCOCC5)CSc5ccccc5)c(S(=O)(=O)C(F)(F)F)c4)cc3)CC2)C1 observed_property="cell viability" test_result=0.894
